Assay: Metabolic stability in human liver microsomes (Pharmaron)
Settings: both, human, microsomes

>  <MOL SMILES>
C[C@@H](NCCCc1cccc(C(F)(F)F)c1)c1cccc2c1CCCC2

>  <CLint scaled at 1 µM [mL/min/kg]>
68

$$$$
>  <MOL SMILES>
C[C@@H](NCCCc1cccc(C(F)(F)F)c1)c1cccc2ccccc12

>  <CLint scaled at 1 µM [mL/min/kg]>
67.4

$$$$

----------
Test: Measurement of LogPo/w (n-octanol/water, RP-HPLC)
Assay type: physicochemical
Settings: water phase, n-octanol/water 1:1, 30 °C, 24 h, n = 3
Given measured C(aqueous), output yes if it is greater than or equal to 0.01 mg/mL and no if not.

>  <MOLECULE>
C[C@@H](NCCCc1cccc(C(F)(F)F)c1)c1cccc2ccccc12 [Cinacalcet]

>  <ASSIGNED CLASS>
no

$$$$
>  <MOLECULE>
CC(C(=O)O)c1ccc(N2Cc3ccccc3C2=O)cc1 (stereo not drawn) [Indoprofen]

>  <ASSIGNED CLASS>
yes

$$$$
>  <MOLECULE>
CCOC(=O)[C@H](C)C[C@@H](Cc1ccc(-c2ccccc2)cc1)NC(=O)CCC(=O)O [Sacubitril]

>  <ASSIGNED CLASS>
yes

$$$$
>  <MOLECULE>
CCOC(=O)[C@H](C)C[C@@H](Cc1ccc(C2CCCCC2)cc1)NC(=O)CCC(=O)O [compound 70]

>  <ASSIGNED CLASS>
yes

$$$$
>  <MOLECULE>
CC(C(=O)O)c1ccc(-c2ccccc2)c(F)c1 (stereo not drawn) [Flurbiprofen]

>  <ASSIGNED CLASS>
yes

$$$$
>  <MOLECULE>
C[C@@H](NCCCc1cccc(C(F)(F)F)c1)c1cccc2c1CCCC2 [compound 39]

>  <ASSIGNED CLASS>
no

$$$$
>  <MOLECULE>
CCCNC(C)C(=O)Nc1ccccc1C (stereo not drawn) [Prilocaine]

>  <ASSIGNED CLASS>
yes

$$$$
>  <MOLECULE>
COc1ccccc1N1CCN(CC(O)COc2cccc3c2CCCC3)CC1 (stereo not drawn) [compound 28]

>  <ASSIGNED CLASS>
yes

$$$$
>  <MOLECULE>
CC(C)NCC(O)COC1CCCC2CCCCC21 (stereo not drawn) [compound 23]

>  <ASSIGNED CLASS>
no

$$$$
